Test: Toxicity data (LD50) in rat
Type: in vivo
Conditions: in vivo, route not stated
METRIC NAME: LD50

Q: Please look up its LD50: CN1CCCC1=O
A: > 2000 mg/kg

Q: Query O=CN1CCCC1 next
A: > 500 mg/kg

Q: Query CO/N=C(\C(=O)NC1C(=O)N2C(C(=O)[O-])=C(C[N+]3(C)CCCC3)CSC12)c1csc(N)n1 (stereo not drawn) next
A: 665 mg/kg

----------
Assay: Stabilities at elevated temperatures (percent potency loss by HPLC, dry containers)
Assay type: physicochemical
Settings: dry solid, 56° C., 4 weeks
METRIC NAME: degraded at 672 h (%)
Just the number in %, nothing appended.

Q: Please look up its degraded at 672 h: CO/N=C(\C(=O)NC1C(=O)N2C(C(=O)[O-])=C(C[N+]3(C)CCCC3)CSC12)c1csc(N)n1 (stereo not shown)
A: 18.1
